- testedSystem: CAL PDZ domain (CALP) (Homo sapiens)
- methodSummary: Fluorescence polarization competition binding, CALP with F*C-SSR5_10 reporter
No end group written: not given here.
measuredAttribute: Ki
Entry format: amount then unit.

q: Record request: Ki value, item CREKKFFSTIL [C-GBG4_10]
a: 63 µM

---

- testedSystem: CAL PDZ domain (CALP) (Homo sapiens, UniProt Q9HD26)
- methodSummary: Fluorescence polarization competition binding, CALP with F*C-GBG4_10 reporter
No end group written: not given here.
measuredAttribute: pKi
Just the number, please; pKi means minus log10 of the concentration in mol/L.

q: Provide the documented pKi with CAL PDZ domain (CALP) (Homo sapiens, UniProt Q9HD26) as the system for CREKKFFSTIL [C-GBG4_10]
a: 3.96
